Tested on: HSC-3
Assay: cells
Assay type: functional, cell-based
Details: Homo sapiens
Description: SANGER: Inhibition of human HSC-3 cell growth in a cell viability assay.
reported.property: IC50 (µM)
Report only the number, with the unit µM understood.

get_value(item= O=C1NC(=O)c2c1c(-c1ccccc1Cl)cc1[nH]c3ccc(O)cc3c21 , readout=IC50) returns 1.18

get_value(item= OC[C@H](Cc1ccccc1)Nc1nc(Oc2ccc3c(c2)CCC3)nc2c1ncn2Cc1ccc(-c2ccccc2)cc1 , readout=IC50) returns 3.88

====

Tested on: DOHH-2;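 note: growth inhibition of human DOHH-2 cells, read out with a cell viability assay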
Assay: cells
Type: functional, cell-based, Homo sapiens
Settings: Homo sapiens, DOHH-2
Description: SANGER: Inhibition of human DOHH-2 cell growth in a cell viability assay.
reported.property: IC50 (nM)
Report only the number, with the unit nM understood.

get_value(item= NC1(c2ccc(-c3nc4ccn5c(=O)[nH]nc5c4cc3-c3ccccc3)cc2)CCC1 , readout=IC50) returns 1280

get_value(item= COc1cc(N2CCC(N3CCN(C)CC3)CC2)ccc1Nc1ncc(Cl)c(Nc2ccccc2S(=O)(=O)C(C)C)n1 , readout=IC50) returns 312

get_value(item= CC1(C)CCC(c2ccc(Cl)cc2)=C(CN2CCN(c3ccc(C(=O)NS(=O)(=O)c4ccc(N[C@H](CCN5CCOCC5)CSc5ccccc5)c(S(=O)(=O)C(F)(F)F)c4)cc3)CC2)C1 , readout=IC50) returns 410
